- Tested on: RXRa homodimer (NR concentration 180 nM)
- Assay Remarks: PBM binding z-score (relative to random genomic background probes); higher = stronger binding; sequences stand for … in GC…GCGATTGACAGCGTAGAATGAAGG
Quantity: PBM binding z-score

[[record]]
sequence_chain = "GTAACGAGGGCAAAGTTGATAGCATCTGTCGACG"
experimental_system = "RXRa homodimer (NR concentration 180 nM)"
reported = 2.08

[[record]]
sequence_chain = "CGAACTAGATCAAGGACAGTGAATCTCCGCACGC"
experimental_system = "RXRa homodimer (NR concentration 180 nM)"
reported = -0.168

[[record]]
sequence_chain = "TCTCGGAGGACACGAGAGGTCAGAGCTCGACATC"
experimental_system = "RXRa homodimer (NR concentration 180 nM)"
reported = 3.07

[[record]]
sequence_chain = "CCTAGCAGGCCAATCTGAGTCACTCAAGGCTTGA"
experimental_system = "RXRa homodimer (NR concentration 180 nM)"
reported = -0.769

[[record]]
sequence_chain = "TCCTATAGGTAATACAGGTGAAAGTCGGCATCTA"
experimental_system = "RXRa homodimer (NR concentration 180 nM)"
reported = 0.757

[[record]]
sequence_chain = "CAAACTAGGTCACCGGAAGGTCAAAGGCCGCATG"
experimental_system = "RXRa homodimer (NR concentration 180 nM)"
reported = 6.36

[[record]]
sequence_chain = "TCTGCTAGGTCAACGACGGTCAGCTAATCTGCTA"
experimental_system = "RXRa homodimer (NR concentration 180 nM)"
reported = 2.74

[[record]]
sequence_chain = "TCGGGTAGGTTAGTCGGGGCATTCAGCCAACATA"
experimental_system = "RXRa homodimer (NR concentration 180 nM)"
reported = 0.0388

[[record]]
sequence_chain = "TAGCCGAGGTCATGGGCCAGTATACCACGCGAAC"
experimental_system = "RXRa homodimer (NR concentration 180 nM)"
reported = 7.64

[[record]]
sequence_chain = "ACTCGCAGGACAAAGGTCAGAGCTACGCCAGTGA"
experimental_system = "RXRa homodimer (NR concentration 180 nM)"
reported = 5.45

[[record]]
sequence_chain = "CCTGCTACGTCATGGTCAGCTAATCTACAGTATG"
experimental_system = "RXRa homodimer (NR concentration 180 nM)"
reported = -0.184

[[record]]
sequence_chain = "CGTCAAAGTTCAACTAAAGTAACGTAAAGCACGC"
experimental_system = "RXRa homodimer (NR concentration 180 nM)"
reported = 5.02

[[record]]
sequence_chain = "AGAATGAGGTTATTAAGATCGGGGAATTGCGGTC"
experimental_system = "RXRa homodimer (NR concentration 180 nM)"
reported = 1.38

[[record]]
sequence_chain = "CGTTCAAGGTCAATGCTAGGTCAGTGAAAGCATT"
experimental_system = "RXRa homodimer (NR concentration 180 nM)"
reported = 5.88

[[record]]
sequence_chain = "CCTATTAGTTGACCAGAAGGGCAACCGAAGCTCG"
experimental_system = "RXRa homodimer (NR concentration 180 nM)"
reported = 0.786

[[record]]
sequence_chain = "AATACAGGGTCATCGTTGGCCAGAGTACGCACAG"
experimental_system = "RXRa homodimer (NR concentration 180 nM)"
reported = 6.56

[[record]]
sequence_chain = "GCTTCTAGGTCAACTGATGGTCAGCTAAAGCTCG"
experimental_system = "RXRa homodimer (NR concentration 180 nM)"
reported = 3.56

[[record]]
sequence_chain = "GCATAGAGGTAATACAAGGTGAAAGTCCGATTGT"
experimental_system = "RXRa homodimer (NR concentration 180 nM)"
reported = 0.977

[[record]]
sequence_chain = "TCCTATAGGTAAACAGGTGAAAGTCCGTAAGTTA"
experimental_system = "RXRa homodimer (NR concentration 180 nM)"
reported = 0.667

[[record]]
sequence_chain = "ATACCAAGGTGATCGTGAGGTCATTGATACTAAC"
experimental_system = "RXRa homodimer (NR concentration 180 nM)"
reported = 3.99

[[record]]
sequence_chain = "CCTTACGGGTCACTCCAGGTTATAGCGTCGGAGT"
experimental_system = "RXRa homodimer (NR concentration 180 nM)"
reported = 4.06

[[record]]
sequence_chain = "CCTACTGGGCCAAGGACATTGATCAGTCAAAGCA"
experimental_system = "RXRa homodimer (NR concentration 180 nM)"
reported = -0.348

[[record]]
sequence_chain = "TGTCAAAGTTCAAAGTTAACGTAAGTATCCACAC"
experimental_system = "RXRa homodimer (NR concentration 180 nM)"
reported = 5.86

[[record]]
sequence_chain = "CGAACTAGGTCATTGACAGGACAGTGTATAGTAA"
experimental_system = "RXRa homodimer (NR concentration 180 nM)"
reported = 2.38

[[record]]
sequence_chain = "CAAACTAGGTCACGAAAGGTGAAAGTCGAATGAC"
experimental_system = "RXRa homodimer (NR concentration 180 nM)"
reported = 5.25

[[record]]
sequence_chain = "CAAACTAGGTAACCGGAAGGTCAAAGTCCGCATG"
experimental_system = "RXRa homodimer (NR concentration 180 nM)"
reported = 3.79

[[record]]
sequence_chain = "CAAACTAGGGCACAGAGGTCAAAGTCCGTGCGTA"
experimental_system = "RXRa homodimer (NR concentration 180 nM)"
reported = 5.91

[[record]]
sequence_chain = "GCTATTAGTTGAAAGGGCATCCGAATGATTCTCG"
experimental_system = "RXRa homodimer (NR concentration 180 nM)"
reported = 1.15

[[record]]
sequence_chain = "CGGACTAGGTCAGAACAGGACAGTGAAGGATGAT"
experimental_system = "RXRa homodimer (NR concentration 180 nM)"
reported = 1.15

[[record]]
sequence_chain = "GCAGACAGGTGACACGCAGGTAACTCAGGGTGGC"
experimental_system = "RXRa homodimer (NR concentration 180 nM)"
reported = 0.715

[[record]]
sequence_chain = "TCTTGTAGATCAAAGGTTGAGAAAGCCGAAGCCT"
experimental_system = "RXRa homodimer (NR concentration 180 nM)"
reported = 1.08

[[record]]
sequence_chain = "CAACCAAGGTGAACAAGGTCGTTGATTACTATTC"
experimental_system = "RXRa homodimer (NR concentration 180 nM)"
reported = 2.07

[[record]]
sequence_chain = "ATACTAAGGTGATCGTGAGGTCGTTGATACTAAC"
experimental_system = "RXRa homodimer (NR concentration 180 nM)"
reported = 2.06

[[record]]
sequence_chain = "GATACAGGGTCAGCTAGAGGCAAGAGTATGGAAA"
experimental_system = "RXRa homodimer (NR concentration 180 nM)"
reported = 4.52

[[record]]
sequence_chain = "TTACCAAGGTGAGCTGAGGCCGTTGATCCAACTC"
experimental_system = "RXRa homodimer (NR concentration 180 nM)"
reported = -0.163

[[record]]
sequence_chain = "TCGCGTAGGTTAGTCGGGGCATTCAGCCAACATA"
experimental_system = "RXRa homodimer (NR concentration 180 nM)"
reported = -0.0315

[[record]]
sequence_chain = "TGACTGAGGTTATAAGATCAGGGAACGTTGCAAA"
experimental_system = "RXRa homodimer (NR concentration 180 nM)"
reported = 1.87


----------
- System: THRa homodimer (NR concentration 90 nM)
- Assay Remarks: PBM binding z-score (relative to random genomic background probes); higher = stronger binding; sequences stand for … in GC…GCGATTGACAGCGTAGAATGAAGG
Quantity: PBM binding z-score

[[record]]
sequence_chain = "GGAACGAGGGCAAAGTCGATAGCATCTGTCGACG"
reported = -0.445

[[record]]
sequence_chain = "TCTTGTATATCAGCAGGTTAAGAAAGCTGGCCAA"
reported = 0.0914

[[record]]
sequence_chain = "CCTTACGGGTCACTCCAGGTTATCGCATCGGAGT"
reported = 0.863

[[record]]
sequence_chain = "GATACACGGTCAGCTAGAGGCCAGAGTATGGAAA"
reported = -0.599


----------
- Test system: RARa:RXR (NR concentration 270 nM, RXRa partner concentration 90 nM)
- Assay Remarks: PBM binding z-score (relative to random genomic background probes); higher = stronger binding; sequences stand for … in GC…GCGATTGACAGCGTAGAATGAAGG
Catalogue of PBM binding z-score readings, one per entry.
Quantity: PBM binding z-score

[[record]]
sequence_chain = "CAGCCTGGGTCAGGGCCAGTATAGGAGGAACGTT"
quantity = "PBM binding z-score"
reported = 0.59

[[record]]
sequence_chain = "ATCTCTAGGTTACAAGTTCAGTGAAAGAGAGGAC"
quantity = "PBM binding z-score"
reported = 2.03

[[record]]
sequence_chain = "CGTCCAAGTTCAAGGTAACGTAACAGAAAGCAGC"
quantity = "PBM binding z-score"
reported = 1.95

